biological target: truncated human beta-secretase (residues 1-458, His6-tagged at the C-terminus) (Homo sapiens); construct: truncated human beta-secretase (residues 1-458, His6-tagged at the C-terminus); His6 (C); made in house; host or cells: insect cells D. melanogaster S2 (baculovirus expression system (so in the source)); assay: BACE fluorescence quench assay; assay type: biochemical
Sequence (P56817 22-458): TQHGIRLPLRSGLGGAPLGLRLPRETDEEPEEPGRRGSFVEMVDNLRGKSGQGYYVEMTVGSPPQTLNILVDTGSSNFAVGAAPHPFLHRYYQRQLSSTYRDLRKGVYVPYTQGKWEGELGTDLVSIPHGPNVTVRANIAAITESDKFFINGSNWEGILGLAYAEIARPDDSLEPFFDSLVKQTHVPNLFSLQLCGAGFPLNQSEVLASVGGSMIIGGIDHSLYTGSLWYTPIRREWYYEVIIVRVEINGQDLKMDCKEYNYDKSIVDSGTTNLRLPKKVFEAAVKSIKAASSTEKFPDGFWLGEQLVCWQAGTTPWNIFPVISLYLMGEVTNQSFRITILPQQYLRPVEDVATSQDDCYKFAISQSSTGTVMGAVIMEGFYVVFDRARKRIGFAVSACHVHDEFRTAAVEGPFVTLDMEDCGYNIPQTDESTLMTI
pIC50: −log10 of the molar value.
Parameter: pIC50. Scope: all listed entries.
attributeMeasured: pIC50

| compound | attributeMeasured | readoutValue |
| --- | --- | --- |
| CN1C(=O)C2(CC(c3ccccc3)Oc3ccc(-c4ccc(F)c(C(=O)NCCO)c4)cc32)N=C1N (centres unmarked) [Compound 40] | pIC50 | 5.30 to 6.00 |
| CNS(=O)(=O)c1cccc(-c2ccc3c(c2)C2(CC(c4ccccc4)O3)N=C(N)N(C)C2=O)c1 (centres unmarked) [Compound 48] | pIC50 | 5.00 to 5.30 |
| CN1C(=O)C2(CC(c3ccccc3)Oc3ccc(-c4cccc(CO)c4)cc32)N=C1N (centres unmarked) [Compound 33] | pIC50 | 5.30 to 6.00 |
| CN1C(=O)C2(CC(c3ccccc3)Oc3ccc(-c4ccccc4)cc32)N=C1N (centres unmarked) [Compound 27] | pIC50 | 5.30 to 6.00 |
| CN1C(=O)C2(CC(c3ccccc3)Oc3ccc(-c4cccc(C(=O)NCCC#N)c4)cc32)N=C1N (centres unmarked) [Compound 47] | pIC50 | 5.00 to 5.30 |
| CN1C(=O)C2(CC(c3ccccc3)Oc3ccc(-c4cccc(CC#N)c4)cc32)N=C1N (centres unmarked) [Compound 29] | pIC50 | 5.30 to 6.00 |
| CNC(=O)c1cccc(-c2ccc3c(c2)C2(CC(c4ccccc4)O3)N=C(N)N(C)C2=O)c1 (centres unmarked) [Compound 50] | pIC50 | 5.00 to 5.30 |
| CN1C(=O)C2(CC(c3ccccc3)Oc3ccc(-c4ccncc4)cc32)N=C1N (centres unmarked) [Compound 58] | pIC50 | 4.30 to 5.00 |
